Numbers sourced from patent US20160040251A1.

- System: breast cancer cell lines (BCLs)
- Assay Method Text: MTS cell viability assay in breast cancer cell lines
- Assay type: cell-based, human
- Experimental Setup: Homo sapiens, 72 h, seven BCLs sensitive to high-dose; 72 h treatment, MTS
pIC50: −log10 of the molar value.
Property Label: pIC50

QUERY: Requested read-out: pIC50. Entry: CN(C)Cc1c(C(=O)NCCOc2ccc(C(=O)NO)cc2)oc2ccccc12
RESULT: < 6.15
